assay: gradient 5% acetonitrile 3 min, to 50% in 2 min, to 85% in 15 min, held 3 min, 100 µL/min; conditions: column: Zorbax Extend-C18 2.1 x 50 mm; eluents: water / acetonitrile, 0.1% formic acid
# cutoff 800 s applies to RP-LC retention time; >= gives rule met, < gives rule not met

Ask: Quick check: does "O=C(O)c1cnc(NCc2ccccn2)nc1-c1cccc(Cl)c1" have RP-LC retention time greater than or equal to 800 s?
Reply: rule not met

Ask: Field entry: "Cc1ccn2cc(-c3ccc(NC(=O)CCC4CCCC4)cc3)nc2n1"
Reply: rule not met

Ask: Field entry: CCCNc1cc(N2CCCC(CCC(=O)Nc3ccccc3CC)C2)ncn1 (stereo not given)
Reply: rule not met

Ask: Field entry: "COC(=O)c1cnc2nc(C)ccc2c1Nc1ccc(Br)cc1"
Reply: rule not met

Ask: Field entry: "O=C(NCC1CC1)c1cn(-c2ccc(S(=O)(=O)N3CCCC3)cn2)cn1"
Reply: rule not met

Ask: Field entry: CSc1cccc(NC(=O)C2CCN(C(=O)c3ncn4c3COC(c3ccc(F)cc3)C4)CC2)c1 (stereo not given)
Reply: rule met

Ask: Field entry: "O=C(CN1C(=O)CSc2ccc(C(=O)N3CCCCC3)cc21)NCCCN1CCCCC1"
Reply: rule not met

Ask: Field entry: CCCN1C(=O)c2c(C(=O)NCc3ccc(OC(C)C)cc3)ncn2CC1(C)C(=O)NC1CCCC1 (stereo not given)
Reply: rule met

Ask: Field entry: CSc1cccc(NC(=O)CN2C(=O)C3CCCCN3c3ccc(S(=O)(=O)N(C)C)cc32)c1 (stereo not given)
Reply: rule met

Ask: Field entry: "CCOC(=O)c1c(C)nn(Cc2cccc(Cl)c2)c1N"
Reply: rule met

Ask: Field entry: COc1ccc2c(c1)C1(CCN(C(=O)c3cccc(Br)c3)C1)C(=O)N2 (stereo not given)
Reply: rule not met

Ask: Field entry: "CC(C)c1nccn1C1CN(C(=O)C2CCCCC2)C1"
Reply: rule not met

Ask: Field entry: "CC(C)(C)c1csc(NC(=O)c2ccc3c(c2)OCCO3)n1"
Reply: rule met

Ask: Field entry: "O=S(=O)(c1ccc2c(c1)CCCC2)N1CCN(c2ccc(-c3ccco3)nn2)CC1"
Reply: rule met

Ask: Field entry: "COc1ccc(-n2nnc(-c3nsc(Nc4ccc(OC)c(Cl)c4)n3)c2C)cc1"
Reply: rule met

Ask: Field entry: "COc1cc(-c2nc3ncccn3c2Nc2cccc(C)c2)ccc1O"
Reply: rule not met

====

Please go through the items and note down their RP-LC retention time.
test: gradient 5% acetonitrile 3 min, to 50% in 2 min, to 85% in 15 min, held 3 min, 100 µL/min; details: column: Zorbax Extend-C18 2.1 x 50 mm; eluents: water / acetonitrile, 0.1% formic acid
Form entry: value (s) — number only.

Ask: Using the record for "O=C(Nc1nccs1)C1CCN(C(=O)C2c3ccccc3Oc3ccccc32)CC1" , report its RP-LC retention time.
Reply: 799

Ask: Field entry: "Nc1nc(NCc2ccccc2Cl)ncc1[N+](=O)[O-]"
Reply: 778

Ask: Field entry: "CCCCC(=O)Nc1ccc2nc(N3CCN(c4cc(Cl)ccc4C)CC3)cc(C(=O)O)c2c1"
Reply: 851

Ask: Field entry: "CCc1ccccc1NC(=O)Cn1c(N)nc(C)cc1=O"
Reply: 584

Ask: Field entry: "CC(=O)Oc1ccc(C(=O)N2CCCc3ccccc32)cc1"
Reply: 904

Ask: Field entry: "O=C(C1=NN(Cc2ccc(Cl)cc2)c2ccccc2S1(=O)=O)N1CCOCC1"
Reply: 854

Ask: Field entry: "Cc1ccc(Nc2ncccc2S(N)(=O)=O)cc1"
Reply: 795

Ask: Field entry: "CC(C)c1cc(C(=O)N2Cc3ccc(CN4CCN(C)CC4)cc3C2)c(O)cc1O"
Reply: 654

Ask: Field entry: CCc1cc(C(=O)N2CCCC2c2cccc(F)c2)no1 (stereo unspecified)
Reply: 944

Ask: Field entry: CC(Cc1ccco1)NC(=O)Cn1c2ccccc2c2cnn(C)c(=O)c21 (stereo unspecified)
Reply: 790

Ask: Field entry: "COc1ccc(/C=C2/CCOC2=O)cc1"
Reply: 833

Ask: Field entry: "CC(C)Cn1cc(CCNC(=O)C2CCCCC2)c2cccnc21"
Reply: 817

Ask: Field entry: "CCOc1ccc(N2C(=O)CC(c3ccc(OC)cc3)CC2=O)cc1"
Reply: 942

Ask: Field entry: O=C(CC(F)(F)F)N1CCCC(CCc2nnc(C3CCOCC3)o2)C1 (stereo unspecified)
Reply: 682

Ask: Field entry: "Cn1c(=O)c2ccnn2c2ccc(C(=O)NCc3ccccc3)cc21"
Reply: 665

Ask: Field entry: "O=C(c1ccsc1)N1CCCN(c2cc(-c3ccccc3)[nH]n2)CC1"
Reply: 741

Ask: Field entry: "COc1ccc(N2C=C(C#N)S(=O)(=O)c3ccc(C)cc32)c(OC)c1"
Reply: 930

Ask: Field entry: CC(C(=O)N1CCN(Cc2ccc3c(c2)OCO3)CC1)n1c2ccccc2c2cnn(C)c(=O)c21 (stereo unspecified)
Reply: 669

Ask: Field entry: "CC1CCN(c2ccc(-c3noc(CN4CCN(CC(=O)NC(C)C)CC4)n3)cn2)CC1"
Reply: 646

Ask: Field entry: "CC(=O)c1c(C)oc2ccc(NS(=O)(=O)c3cccc([N+](=O)[O-])c3)cc12"
Reply: 822

Ask: Field entry: O=C1CCN(C(=O)C2COc3ccccc3O2)CCOCCN1 (stereo unspecified)
Reply: 634

====

experiment: gradient 5% acetonitrile 3 min, to 50% in 2 min, to 85% in 15 min, held 3 min, 100 µL/min; details: column: Zorbax Extend-C18 2.1 x 50 mm; eluents: water / acetonitrile, 0.1% formic acid
Observation type: RP-LC retention time (s)
Form entry: value (s) — number only.

Ask: Using the record for "NC(=O)c1c([N+](=O)[O-])cc(C(F)(F)F)cc1[N+](=O)[O-]" , report its RP-LC retention time.
Reply: 702

Ask: Field entry: CCCC1(CO)CCCN1C(=O)c1ccc2[nH]ccc2c1 (stereo not given)
Reply: 745

Ask: Field entry: "O=S(=O)(c1ccccc1)N1CC(n2cc(COc3ccc(F)cc3)nn2)C1"
Reply: 888

Ask: Field entry: O=C(Nc1ccccc1)N1CCC(N2CC(OCC3CC3)C23CCOCC3)CC1 (stereo not given)
Reply: 635

Ask: Field entry: O=C(Nc1ccc(S(=O)(=O)N2CCCCC2c2cccnc2)cc1)C1CCCCC1 (stereo not given)
Reply: 654

====

test: gradient 5% acetonitrile 3 min, to 50% in 2 min, to 85% in 15 min, held 3 min, 100 µL/min; settings: column: Zorbax Extend-C18 2.1 x 50 mm; eluents: water / acetonitrile, 0.1% formic acid
Observation type: RP-LC retention time
Report field: quantity (unit follows the number).

Ask: Using the record for "CCOC(=O)c1c(C)oc2ncnc(NCC3CCN(Cc4ccccc4F)CC3)c12" , report its RP-LC retention time.
Reply: 694 s

Ask: Field entry: COc1ccc(NC(=O)C2CC(=O)N(c3ccc4c(c3)CCN4C(C)=O)C2)cc1F (stereo not drawn)
Reply: 687 s

Ask: Field entry: "O=S(=O)(c1cccnc1)N1CCCn2nc(-c3cccc(F)c3)cc2C1"
Reply: 698 s

====

test: gradient 5% acetonitrile 3 min, to 50% in 2 min, to 85% in 15 min, held 3 min, 100 µL/min; settings: column: Zorbax Extend-C18 2.1 x 50 mm; eluents: water / acetonitrile, 0.1% formic acid
The label is True for RP-LC retention time below 900 s and False for RP-LC retention time equal to or exceeding 900 s.

Ask: Find out if reported RP-LC retention time for "CCc1ccc(-c2cc(C(=O)N3CCN(c4cc(=O)n(C(C)C)c(=O)n4C(C)C)CC3)[nH]n2)cc1" is less than 900 s
Reply: False

Ask: Field entry: "O=C(Nc1ccc(OCc2nnc(-c3ccc(F)cc3)o2)cc1)c1cccnc1"
Reply: True

Ask: Field entry: "Cc1cc(Cl)ccc1S(=O)(=O)N1C[C@@H](F)C[C@H]1C(=O)N1CCCCC1"
Reply: False

Ask: Field entry: "Cn1c2c(c(=O)n3ncc(C(=O)N4CCN(c5ccccn5)CC4)c13)CN(Cc1ccccc1)CC2"
Reply: True

Ask: Field entry: "COc1cc(S(=O)(=O)NCc2ccccc2)c(OC)cc1Br"
Reply: True

Ask: Field entry: "COc1cc(-c2nnc(SCc3c(F)cccc3Cl)o2)cc(OC)c1OC"
Reply: False

Ask: Field entry: "CCN(CC)CCNC(=O)CCc1c(C)nc2c(c1C)c(=O)n(C)c(=O)n2C"
Reply: True

Ask: Field entry: "CCS(=O)(=O)N1CCCN(C2=NS(=O)(=O)C(c3ccc(C)c(C)c3)=C2C)CC1"
Reply: True

====

experiment: gradient 5% acetonitrile 3 min, to 50% in 2 min, to 85% in 15 min, held 3 min, 100 µL/min; conditions: column: Zorbax Extend-C18 2.1 x 50 mm; eluents: water / acetonitrile, 0.1% formic acid
The label is Y for RP-LC retention time below 700 s and N for RP-LC retention time equal to or exceeding 700 s.

Ask: Find out if reported RP-LC retention time for Cc1ccc2[nH]cc(CCN3CC(C(=O)NC4CCCCC4)CC3=O)c2c1 (stereo unspecified) is less than 700 s
Reply: N

Ask: Field entry: "O=C(CSc1nnc2c(=O)n(-c3ccc(F)cc3)ccn12)c1ccc(F)cc1"
Reply: N

Ask: Field entry: "Cc1ccc2nc(C(=O)NCc3ccc(F)cc3)cn2c1"
Reply: Y
